target: human FXR (Homo sapiens); construct: expressed in transfected cells; host or cells: HEK293 cells stably carrying a 5xGal4-response-element firefly luciferase reporter, transiently transfected with pcDNA3.1-Gal4-FXR; test: transient human FXR/Gal4-luciferase reporter assay; format: cell-based; conditions: Gal4-hFXR fusion construct, luciferase reporter HEK293 cells; response relative to 8 μM GW-4064; unit inferred
result-type: EC50 (nM)

{"smiles": "COc1nc(C(=O)O)cc2ccc(N3CC4(CC(/C=C/c5c(-c6ccccc6C(F)(F)F)noc5C5CC5)C4)C3)cc12", "measure-unit": "nM", "EC50": 169}

[P] CCc1nc(C(=O)O)cc2ccc(N3CC4(CC(/C=C/c5c(-c6c(Cl)cncc6Cl)noc5C5CC5)C4)C3)cc12
[Q] O=C(O)c1cc(O[C@H]2CCOC2)c2cc(N3CC4(CC(/C=C/c5c(-c6ccccc6C(F)(F)F)noc5C5CC5)C4)C3)ccc2n1
[Q] Form: Entry with minimum EC50 (choose one): P / Q Answer format: the label of the selected item.
[A] Q
(Q: 18 nM, P: 302 nM)

* * *

target: human FXR (Homo sapiens, UniProt Q96RI1); construct: expressed in transfected cells; host or cells: HEK293 cells stably carrying a 5xGal4-response-element firefly luciferase reporter, transiently transfected with pcDNA3.1-Gal4-FXR; assay: transient human FXR/Gal4-luciferase reporter assay; type: cell-based; conditions: Gal4-hFXR fusion construct, luciferase reporter HEK293 cells; response relative to 8 μM GW-4064
Sequence (Q96RI1 262-486 limits assumed): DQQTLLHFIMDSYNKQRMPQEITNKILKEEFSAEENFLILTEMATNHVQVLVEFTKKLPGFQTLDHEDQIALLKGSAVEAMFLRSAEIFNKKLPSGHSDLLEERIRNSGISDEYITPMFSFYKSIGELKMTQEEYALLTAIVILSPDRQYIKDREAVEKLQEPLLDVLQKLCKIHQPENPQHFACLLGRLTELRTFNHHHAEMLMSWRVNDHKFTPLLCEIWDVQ
result-type: EC50 (nM)

{"smiles": "O=C(O)c1cc(OC2CCC2)c2cc(N3CC4(CC(/C=C/c5c(-c6cccnc6C(F)(F)F)noc5C5CC5)C4)C3)ccc2n1", "EC50 / nM": 86}

[I] COc1cc(C(=O)O)nc2ccc(N3CC4(CC(/C=C/c5c(-c6ccncc6Cl)noc5C5CC5)C4)C3)cc12
[II] COc1cc(C(=O)O)nc2ccc(N3CC4(CC(/C=C/c5c(-c6c(Cl)cncc6Cl)noc5C5CC5)C4)C3)cc12
[Q] Lower value of EC50 belongs to which: I or II ? I would appreciate it if you answered with the label of your choice.
[A] II
(II: 155 nM, I: 501 nM)

* * *

Target: human FXR (Homo sapiens)
Construct: expressed in transfected cells; host or cells: HEK293 cells stably carrying a 5xGal4-response-element firefly luciferase reporter, transiently transfected with pcDNA3.1-Gal4-FXR
Assay: transient human FXR/Gal4-luciferase reporter assay
Assay type: cell-based
Settings: Gal4-hFXR fusion construct, luciferase reporter HEK293 cells; response relative to 8 μM GW-4064; unit inferred
Protocol: The exemplified compounds of the present invention were tested in the transient human FXR/Gal4-luciferase reporter assay, and assay results were reported in Table 1 and Examples 1 to 3 together with other analytical data. A Gal4-hFXR fusion construct reporter system was used as the primary assay to characterize compound activity. A construct including 5 copies of the Gal4 promoter response element upstream of a firefly luciferase reporter cDNA was stably expressed in HEK293 cells. […]
result-type: EC50 (nM)

{"molecule": "Cn1nc(C(=O)O)cc1OCC1CC2(CC(/C=C/c3c(-c4ccccc4C(F)(F)F)noc3C3CC3)C2)C1 (centres unmarked)", "measure-unit": "nM", "EC50": 99}
{"molecule": "O=C(O)c1cc(O[C@@H]2CCOC2)c2cc(N3CC4(CC(/C=C/c5c(-c6cccnc6C(F)(F)F)noc5C5CC5)C4)C3)ccc2n1", "measure-unit": "nM", "EC50": 231}

[I] O=C(O)c1cc(OC2COC2)c2cc(N3CC4(CC(/C=C/c5c(-c6c(Cl)cncc6Cl)noc5C5CC5)C4)C3)ccc2n1
[II] O=C(O)c1cc(F)c2nc(N3CC4(CC(/C=C/c5c(-c6c(Cl)cncc6Cl)noc5C5CC5)C4)C3)sc2c1
[III] O=C(O)c1cc(OC2COC2)c2cc(N3CC4(CC(/C=C/c5c(-c6ccccc6C(F)(F)F)noc5C5CC5)C4)C3)ccc2n1
[IV] Cc1nc(C(=O)O)cc2ccc(N3CC4(CC(/C=C/c5c(-c6c(Cl)cncc6Cl)noc5C5CC5)C4)C3)cc12
[V] O=C(O)c1ncc(OCC2CC3(CC(/C=C/c4c(-c5c(Cl)cncc5Cl)noc4C4CC4)C3)C2)cc1OC1CCC1 (centres unmarked)
[Q] hey, can you rank those molecules up there by EC50? biggest number first please Rank them, then answer with their labels in that order.
[A] II, IV, I, III, V
(II: 667 nM, IV: 429 nM, I: 114 nM, III: 52 nM, V: 22 nM)
